# log10 of Ki listing for each entry below
- system_tested: DLK (Homo sapiens)
- Sequence (Q12852 1-520): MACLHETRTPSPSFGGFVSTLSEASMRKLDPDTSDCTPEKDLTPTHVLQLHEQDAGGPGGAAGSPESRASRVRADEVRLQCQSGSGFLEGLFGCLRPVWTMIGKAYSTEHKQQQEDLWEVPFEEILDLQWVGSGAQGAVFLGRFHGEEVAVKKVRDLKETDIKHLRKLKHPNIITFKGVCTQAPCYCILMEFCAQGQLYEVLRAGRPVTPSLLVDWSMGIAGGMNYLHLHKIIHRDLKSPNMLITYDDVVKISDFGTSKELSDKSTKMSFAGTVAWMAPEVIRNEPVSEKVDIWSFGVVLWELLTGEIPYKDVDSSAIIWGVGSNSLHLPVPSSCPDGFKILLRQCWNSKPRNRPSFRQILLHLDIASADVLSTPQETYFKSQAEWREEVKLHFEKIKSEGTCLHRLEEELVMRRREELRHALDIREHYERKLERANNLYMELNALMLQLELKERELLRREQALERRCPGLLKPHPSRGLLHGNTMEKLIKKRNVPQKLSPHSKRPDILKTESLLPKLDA
- condition_info: read-out: DLK (Ki) μM; TR-FRET; 5 nM GST-tagged DLK (catalytic domain aa 1-520), 40 nM HIS-MKK4 K131M substrate, 30 μM ATP, 60 minutes
Form field - Quantity: Ki; Unit: µM; Scale: log10

# annotated cases, reported log10 of Ki shown
> print(dat)
                                   compound  assay.result
1  CC(C)n1nc(-c2cnc3[nH]cc(C(F)(F)F)c3c2)cc1[C@H]1[C@@H]2CN(C3COC3)C[C@@H]21         -3.40
2  CCc1c[nH]c2ncc(-c3cc(C4CCOC4)n(C4CC(F)(F)C4)n3)cc12 (centres unmarked)         -1.60
3  CC(C)Oc1cc(-c2cc(C3CCN(C4COC4)CC3)n(C3CCC(F)(F)C3)n2)cnc1N (centres unmarked)         -0.04
4  Cc1c[nH]c2ncc(-c3cc(C4CCN(C)C(=O)C4)n(C4CC(F)(F)C4)n3)cc12 (centres unmarked)         -0.60
5  COCCN1C[C@@H]2[C@H](C1)[C@H]2c1cc(-c2cnc(N)c(Cl)c2)nn1CC(C)C         -1.52

Value wanted: log10 of Ki (DLK (Homo sapiens)) of entry "CC(C)n1nc(-c2cnc3[nH]cc(C#N)c3c2)cc1C1CCN(C2COC2)CC1"
-0.92

Value wanted: log10 of Ki (DLK (Homo sapiens)) of entry "CC(C)n1nc(-c2cnc3[nH]cc(C(F)(F)F)c3c2)cc1C1CCN(C2CCC2)CC1"
-3.00

Value wanted: log10 of Ki (DLK (Homo sapiens)) of entry "CC(C)n1nc(-c2cnc(N)c(C#N)c2)cc1[C@H]1[C@@H]2CN(C3COC3)C[C@@H]21"
-1.66
